Molecular target: BDNF/NT-3 growth factors receptor (Homo sapiens) (UniProt Q16620);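 note: values are the mean percent inhibition of TRKB kinase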
Sequence (Q16620 32-822 limits assumed): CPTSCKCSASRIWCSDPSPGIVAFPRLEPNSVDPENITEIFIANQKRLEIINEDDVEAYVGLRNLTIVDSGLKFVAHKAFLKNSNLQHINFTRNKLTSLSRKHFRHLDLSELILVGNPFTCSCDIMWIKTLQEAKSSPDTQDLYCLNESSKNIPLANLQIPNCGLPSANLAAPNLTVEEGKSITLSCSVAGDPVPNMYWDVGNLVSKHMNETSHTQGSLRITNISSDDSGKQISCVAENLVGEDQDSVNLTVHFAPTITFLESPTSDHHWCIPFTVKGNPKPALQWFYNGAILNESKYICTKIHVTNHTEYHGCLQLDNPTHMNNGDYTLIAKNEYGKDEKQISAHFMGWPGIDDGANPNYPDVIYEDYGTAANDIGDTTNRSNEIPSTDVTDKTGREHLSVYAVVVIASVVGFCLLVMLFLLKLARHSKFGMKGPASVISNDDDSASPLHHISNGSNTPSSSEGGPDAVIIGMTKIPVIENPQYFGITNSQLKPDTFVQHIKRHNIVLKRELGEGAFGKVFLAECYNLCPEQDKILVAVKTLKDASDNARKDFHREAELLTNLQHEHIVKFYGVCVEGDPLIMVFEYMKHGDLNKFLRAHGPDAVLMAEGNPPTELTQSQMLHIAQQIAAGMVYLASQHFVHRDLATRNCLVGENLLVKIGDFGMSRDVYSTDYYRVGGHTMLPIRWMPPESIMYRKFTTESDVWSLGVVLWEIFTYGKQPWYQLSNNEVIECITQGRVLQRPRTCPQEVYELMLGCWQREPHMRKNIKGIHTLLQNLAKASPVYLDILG
Details: at 1 µM
metric: inhibition (%)

> print(dat)
                             chemical.smiles  reading
 1    c1cnn2ncc(-c3ccnc(NCCCN4CCOCC4)n3)c2c1     1.35
 2  COc1ccc2ncn(-c3cc(O[C@H](C)c4ccccc4C(F)(F)F)c(C(N)=O)s3)c2c1     4.65
 3  COc1cc(N2CCN(C(C)C)CC2)ccc1Nc1nc(Nc2cccc(F)c2C(=O)O)c2cc[nH]c2n1      6.6
 4  N#Cc1ccc2c(-c3ccnc(NC4CC4)n3)c(-c3ccc(F)cc3)nn2c1     0.68
 5  CNC(=O)c1ncccc1Nc1nc(Nc2cc3c(cc2OC)CCCN3C(=O)CN(C)C)nc2[nH]ccc12     5.34
 6  CCN1CCC(C(=O)Nc2n[nH]c3nnc(-c4cccc(F)c4F)cc23)CC1     1.47
 7  NC(=O)c1ccc2c(-c3ccnc(NCCCO)n3)c(-c3ccc(F)cc3)nn2c1     2.83
 8          N#Cc1cccc(Nc2ncc(-c3ccccc3)o2)c1     26.5
 9  NS(=O)(=O)c1ccc(N/N=C2\C(=O)Nc3cccc(CCc4ccncc4)c32)cc1     45.4
10    Cc1ccc(-c2cc3c(NC(=O)C4CC4)ncnc3o2)cc1     4.58
11      Cc1cc(O)cc(C)c1/C=C/c1cncc(C(N)=O)c1     0.87
12  CCS(=O)(=O)c1ccc(OC)c(Nc2ncc(-c3cccc(C(C)=O)c3)o2)c1     20.5
13  CN(C)CCNC(=O)Nc1ccc(N(C)c2ccnc(Nc3ccc(CS(C)(=O)=O)cc3)n2)cc1     9.09
14  O=C(O[C@H]1CN[C@H](C#Cc2cc3ncnc(Nc4ccc5c(cnn5Cc5ccccc5)c4)c3s2)C1)N1CCOCC1    -0.38
15  CS(=O)(=O)CCNCc1ccoc1-c1ccc2ncnc(Nc3ccc(OCc4ccccc4)cc3)c2c1     4.41
16  COc1ccccc1-c1cc(/C=C2\C(=O)Nc3ncc(Br)cc32)cc(Br)c1O     89.2
17  OCCCNc1nccc(-c2c(-c3ccc(F)cc3)nn3cc(C(F)(F)F)ccc23)n1      1.1
18                 Cn1c(-c2nonc2N)nc2cnccc21     0.53
19  NS(=O)(=O)c1ccc(N/N=C2\C(=O)Nc3ccc(C(=O)NCc4ccncc4)cc32)cc1       60
20     COc1cccc(Nc2nccc(-c3cnn4ncccc34)n2)c1     34.1

Provenance of the data: ChEMBL document CHEMBL1961873
